# PROTOCOL TEXT: Pharmacokinetics of Compound 106 after intravenous and oral dosing in rats
# Type: in vivo, Male Sprague-Dawley rats
# CONDITION PARAMETERS: male, Sprague-Dawley, rat, IV dosing, 8 mg/kg co-dosed, plasma
METRIC NAME: AUC(0-inf) (ng·h/mL)

A = [2H]c1cc(C([2H])([2H])[2H])c([2H])n(-c2ccccc2)c1=O
B = Cc1ccc(=O)n(-c2ccccc2)c1
Prompt line: # min-compare on AUC(0-inf) between A and B Response format: the label of the selected entry.
Response line: B
(B: 11600 ng·h/mL, A: 20100 ng·h/mL)

----------
# PROTOCOL TEXT: Pharmacokinetics of Compound 106 after intravenous and oral dosing in rats
# Type: in vivo, Male Sprague-Dawley rats
# CONDITION PARAMETERS: male, Sprague-Dawley, rat, IV dosing, 8 mg/kg co-dosed with pirfenidone, plasma
METRIC NAME: half-life (min)

a = [2H]c1cc(C([2H])([2H])[2H])c([2H])n(-c2ccccc2)c1=O
b = Cc1ccc(=O)n(-c2ccccc2)c1
Prompt line: // which entry reports the smaller half-life, a or b ? Provide the label of your selected option as the answer.
Response line: b
(b: 44.4 min, a: 72 min)

----------
# PROTOCOL TEXT: Pharmacokinetics of Compounds 106 and 108 after intravenous and oral dosing in chimpanzees
# Type: in vivo
# CONDITION PARAMETERS: both sexes, plasma; chimps, oral dosing (Avg), 100 mg each co-dosed
METRIC NAME: Cmax (ng/mL)

>>> print(df.to_string())
                    structure_smiles_string  value_units  quantitative_result
0  [2H]C([2H])([2H])c1ccc(=O)n(-c2ccccc2)c1        ng/mL                  360

a = [2H]c1cc(C([2H])([2H])[2H])c([2H])n(-c2ccccc2)c1=O
b = Cc1ccc(=O)n(-c2ccccc2)c1
Prompt line: Lowest Cmax? choose a or b Reply with the label of the item you choose.
Response line: b
(b: 230 ng/mL, a: 340 ng/mL)

----------
# PROTOCOL TEXT: Pharmacokinetics of Compound 106 after intravenous and oral dosing in rats
# Format: in vivo, Male Sprague-Dawley rats
# CONDITION PARAMETERS: male, Sprague-Dawley, rat, oral dosing, 8 mg/kg co-dosed, plasma
METRIC NAME: AUC(0-inf) (ng·h/mL)

A = Cc1ccc(=O)n(-c2ccccc2)c1
B = [2H]c1cc(C([2H])([2H])[2H])c([2H])n(-c2ccccc2)c1=O
Prompt line: // pick min by AUC(0-inf): A , B Bench note: the answer is the label of the chosen record.
Response line: A

These entries and their values trace back to patent US20130018193A1.
